# credit: patent US11395857B2

Assay: in vivo
Conditions: male, NRG (NOD.Cg-Rag1tm1Mom Il2rgtm1Wjl/SzJ), mouse, total radioactivity, Tumour/muscle

{"Compound": "CCCC[C@H](NC(=O)CN1CCC(NC(=O)[C@H](CCCCNC(=O)CN2CCN(CC(=O)O)CCN(CC(=O)O)CCN(CC(=O)O)CC2)NC(=O)CNC(=O)CCCc2ccc(-c3ccc(C)cc3)cc2)CC1)C(=O)N[C@H]1CC(=O)NCCCC[C@@H](C(N)=O)N(C)C(=O)[C@H](Cc2c[nH]c3ccccc23)NC(=O)[C@H](CCCNC(=N)N)N(C)C(=O)[C@@H](Cc2ccccc2)NC(=O)[C@H](Cc2c[nH]cn2)NC1=O [^177Lu-labeled CCZ01158, metal not drawn]", "tissue to tissue ratio at 1 h": 7.99}
